- TEST SYSTEM: human A1 receptor (Homo sapiens)
- Sequence (P30542 1-326): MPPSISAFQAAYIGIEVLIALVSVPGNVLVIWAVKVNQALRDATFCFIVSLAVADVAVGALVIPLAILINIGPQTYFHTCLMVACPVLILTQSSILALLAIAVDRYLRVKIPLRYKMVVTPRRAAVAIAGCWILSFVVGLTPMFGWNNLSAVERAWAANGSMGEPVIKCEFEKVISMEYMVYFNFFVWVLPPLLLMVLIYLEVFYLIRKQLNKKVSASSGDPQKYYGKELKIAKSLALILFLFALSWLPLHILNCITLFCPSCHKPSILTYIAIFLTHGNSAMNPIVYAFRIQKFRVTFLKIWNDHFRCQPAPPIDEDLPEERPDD
- ASSAY PROTOCOL: functional cAMP (HTRF) assay, recombinant CHO cells expressing human A1 receptor, forskolin, agonist CPA
pIC50: −log10 of the molar value.
MEASUREMENT NAME: pIC50

Give measured pIC50 for every item shown.
1. C#CCC1(O)CCN(C(=O)Nc2nc3c(C4CCOCC4)ccc(OC)c3[nH]2)CC1 [compound 102]
2. COCCn1cc(C(=O)Nc2nc3c(-c4cnn(C)c4)ccc(OC)c3[nH]2)cn1 [compound 161]
3. COc1ccc(-c2ccccc2)c2nc(NC(=O)c3cnc(N)s3)[nH]c12 [compound 258]
4. COc1ccc(-c2ccccc2F)c2nc(NC(=O)c3ccc(C(=O)N(C)C)cc3)[nH]c12 [compound 242]
5. COc1ccc(-c2cnn(C)c2)c2[nH]c(NC(=O)c3cnn(C)c3)nc12 [compound 160]
6. COc1ccc(-c2cccc3[nH]ncc23)c2nc(NC(=O)N3CCC(C)(O)CC3)[nH]c12 [compound 271]

["< 6.00", "< 6.00", "> 6.00", "> 6.00", "< 6.00", "< 6.00"]

Give measured pIC50 for every item shown.
1. COc1ccc(-c2cnn(C)c2)c2nc(NC(=O)c3ccc(C(=O)N(C)C)nc3)[nH]c12 [compound 162]
2. COc1ccc(-c2cn[nH]c2)c2nc(NC(=O)N3CCC(C)(O)CC3)[nH]c12 [compound 79]

1. < 6.00
2. < 6.00

====

- TEST SYSTEM: human A2A receptor (Homo sapiens, UniProt P29274)
- Sequence (P29274 whole entry): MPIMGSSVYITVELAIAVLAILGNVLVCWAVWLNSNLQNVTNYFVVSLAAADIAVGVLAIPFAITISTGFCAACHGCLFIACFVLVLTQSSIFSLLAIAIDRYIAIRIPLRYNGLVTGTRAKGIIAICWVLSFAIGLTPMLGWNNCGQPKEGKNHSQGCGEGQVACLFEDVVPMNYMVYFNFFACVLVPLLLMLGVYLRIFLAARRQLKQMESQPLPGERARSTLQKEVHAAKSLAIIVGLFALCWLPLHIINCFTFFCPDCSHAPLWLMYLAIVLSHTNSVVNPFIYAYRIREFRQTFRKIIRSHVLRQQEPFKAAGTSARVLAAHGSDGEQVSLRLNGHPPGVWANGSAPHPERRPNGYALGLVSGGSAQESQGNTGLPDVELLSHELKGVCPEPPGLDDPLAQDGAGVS
- ASSAY PROTOCOL: functional cAMP (HTRF) assay, recombinant HEK293 cells expressing human A2A receptor, agonist NECA
MEASUREMENT NAME: IC50

See these solved cases before continuing.
{"INPUT SMILES": "COCCn1cc(C(=O)Nc2nc3c(-c4ccc5cc[nH]c5c4)ccc(OC)c3[nH]2)cn1", "MEASUREMENT NAME": "IC50", "VALUE": "< 0.1 µM"}
{"INPUT SMILES": "COc1ccc(C2CCOCC2)c2nc(NC(=O)c3ccc(C(=O)N(C)C)cc3)[nH]c12", "MEASUREMENT NAME": "IC50", "VALUE": "< 0.01 µM"}

Fill in the recorded IC50 for this compound, with human A2A receptor (Homo sapiens, UniProt P29274) as test system: "COc1ccc(-c2ccccc2)c2nc(NC(=O)c3cnc(C)s3)[nH]c12"
< 0.01 µM

====

Can you tell me pIC50 for the items I'm about to list?
- TEST SYSTEM: UniProt:P0DMS8
- Sequence (P0DMS8 whole entry): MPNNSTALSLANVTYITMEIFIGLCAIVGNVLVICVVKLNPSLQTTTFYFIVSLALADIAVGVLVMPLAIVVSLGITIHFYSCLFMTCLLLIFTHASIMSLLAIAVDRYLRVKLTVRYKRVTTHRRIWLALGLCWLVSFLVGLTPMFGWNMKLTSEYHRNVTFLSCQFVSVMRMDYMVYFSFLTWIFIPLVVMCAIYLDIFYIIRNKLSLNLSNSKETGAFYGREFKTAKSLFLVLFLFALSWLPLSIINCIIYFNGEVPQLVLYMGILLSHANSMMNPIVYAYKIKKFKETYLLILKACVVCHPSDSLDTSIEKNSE
- ASSAY PROTOCOL: functional cAMP (HTRF) assay, recombinant CHO cells expressing human A3 receptor, forskolin, agonist IB-MECA
pIC50: −log10 of the molar value.

{"COMPOUND": "COc1cc(F)c(C2CCOCC2)c2nc(NC(=O)c3ccc(C(=O)N(C)C)cc3)[nH]c12 [compound 277]", "pIC50": "< 6.00"}

Give measured pIC50 for every item shown.
1. COc1ccc(-c2ccccc2)c2nc(NC(=O)N3CCC(C)CC3)[nH]c12 [compound 28]
2. COc1ccc(C2CCOCC2)c2nc(NC(=O)c3ccc(C(=O)N(C)C)cc3)[nH]c12 [compound 133]
3. COc1ccc(-c2cnn(C)c2)c2nc(NC(=O)c3ccc(CN(C)C)cc3)[nH]c12 [compound 48]

1: > 6.00; 2: < 6.00; 3: < 6.00

====

- TEST SYSTEM: UniProtKB P29274
- ASSAY PROTOCOL: functional cAMP (HTRF) assay, recombinant HEK293 cells expressing human A2A receptor, agonist NECA
MEASUREMENT NAME: IC50

See these solved cases before continuing.
{"INPUT SMILES": "COc1ccc(N2CCOCC2)c2nc(NC(=O)c3ccc(Cn4ccnc4)cc3)[nH]c12", "TEST SYSTEM": "UniProtKB P29274", "IC50": "< 0.01 µM"}
{"INPUT SMILES": "COc1ccc(C2CCOCC2)c2nc(NC(=O)c3cccc(N=S(C)(C)=O)c3)[nH]c12", "TEST SYSTEM": "UniProtKB P29274", "IC50": "< 0.1 µM"}
{"INPUT SMILES": "COc1ccc(-c2cnn(C)c2)c2nc(NC(=O)N[C@@H]3CNC[C@@H]3F)[nH]c12", "TEST SYSTEM": "UniProtKB P29274", "IC50": "< 0.1 µM"}
{"INPUT SMILES": "COc1ccc(-c2ccccc2)c2nc(NC(=O)c3ccc(F)cc3)[nH]c12", "TEST SYSTEM": "UniProtKB P29274", "IC50": "< 0.01 µM"}
{"INPUT SMILES": "COc1ccc(C2CCCCC2)c2nc(NC(=O)N3CCC(C)(O)CC3)[nH]c12", "TEST SYSTEM": "UniProtKB P29274", "IC50": "< 0.01 µM"}

Give measured IC50 for every item shown.
1. COc1ccc(-c2ccccc2)c2nc(NC(=O)c3cnc(N)s3)[nH]c12
2. COc1cc(F)c(C2CCOCC2)c2nc(NC(=O)c3ccc(C(=O)N(C)C)cc3)[nH]c12
3. COc1ccc(-c2cnn(C)c2)c2nc(NC(=O)c3ccnc(N4CCC(C)(O)CC4)c3)[nH]c12

1: < 0.01 µM; 2: < 0.1 µM; 3: < 0.01 µM

====

Can you tell me IC50 for the items I'm about to list?
- TEST SYSTEM: human A1 receptor (Homo sapiens, UniProt P30542)
- ASSAY PROTOCOL: functional cAMP (HTRF) assay, recombinant CHO cells expressing human A1 receptor, forskolin, agonist CPA

See these solved cases before continuing.
{"COMPOUND": "COc1ccc(-c2cnn(C)c2)c2nc(NC(=O)c3ccc4occc4c3)[nH]c12", "IC50": "> 1000 nM"}
{"COMPOUND": "COc1ccc(N2CCCCCC2)c2nc(NC(=O)N3CCC(C)(O)CC3)[nH]c12", "IC50": "> 1000 nM"}

Give measured IC50 for every item shown.
1. COc1ccc(N2CCOCC2)c2nc(NC(=O)c3cnn(C(CO)CCl)c3)[nH]c12 (stereo not shown)
2. COc1ccc(-c2ccccc2)c2nc(NC(=O)c3ccc(Cn4ccnc4)cc3)[nH]c12
3. COc1ccc(-c2ccc(F)cc2)c2nc(NC(=O)c3ccc(C(=O)N(C)C)cc3)[nH]c12
4. COCCn1cc(C(=O)Nc2nc3c(-c4ccc5[nH]nc(C)c5c4)ccc(OC)c3[nH]2)cn1
5. COc1ccc(-c2ccccc2)c2[nH]c(NC(=O)c3ccc(C(=O)NCCO)cc3)nc12
6. CCCC(CC)c1ccc(OC)c2[nH]c(NC(=O)c3cnn(C)c3)nc12 (stereo not shown)

["> 1000 nM", "< 1000 nM", "< 1000 nM", "< 1000 nM", "< 1000 nM", "> 1000 nM"]

====

Can you tell me IC50 for the items I'm about to list?
- System: mouse Pan T cells
- ASSAY PROTOCOL: mouse Pan T cell IFN-γ rescue from A2A agonist CGS-21680 (ELISA, 48 h)
- Format: cell-based
- ASSAY SETUP: Mus musculus, T-cell
A complete answer gives the number and then names the unit.

See these solved cases before continuing.
{"COMPOUND": "COc1ccc(-c2cnn(C)c2)c2nc(NC(=O)N3CCC4(CCCOC4)C3)[nH]c12 (centres unmarked) [compound 67]", "IC50": "800 nM"}
{"COMPOUND": "COc1ccc(-c2cnn(C)c2)c2nc(NC(=O)c3ccc(CN4CCCC4=O)cc3)[nH]c12 [compound 100]", "IC50": "80 nM"}

Give measured IC50 for every item shown.
1. C#CCC1(O)CCN(C(=O)Nc2nc3c(-c4cnn(C)c4)ccc(OC)c3[nH]2)CC1 [compound 92]
2. COc1ccc(-c2cnn(C)c2)c2nc(NC(=O)c3ccc(Cn4ccnc4)cc3)[nH]c12 [compound 71]
3. COc1ccc(-c2cnn(C)c2)c2nc(NC(=O)N3CCC(C)(CO)CC3)[nH]c12 [compound 35]

["500 nM", "40 nM", "220 nM"]
